Protocol conditions: human gut metagenome, 24 h, 2 µM; note: call rule not given here
Quantity measured: Bacterial Biotransformation

compound=CN1CCN(CC/C=C2/c3ccccc3Sc3ccc(S(=O)(=O)N(C)C)cc32)CC1 quantity_measured="Bacterial Biotransformation" test_value="Compound metabolized"
compound="CC(C)(C(=O)O)c1ccc(C(O)CCCN2CCC(C(O)(c3ccccc3)c3ccccc3)CC2)cc1 (configuration not stated) [FEXOFENADINE]" quantity_measured="Bacterial Biotransformation" test_value="Compound NOT metabolized"
compound=COc1ccc2c(c1OC)C(=O)O[C@@H]2[C@H]1c2c(cc3c(c2OC)OCO3)CCN1C quantity_measured="Bacterial Biotransformation" test_value="Compound NOT metabolized"
compound="CC(=O)OCC(=O)[C@@]1(O)[C@@H](C)C[C@H]2[C@@H]3CCC4=CC(=O)C=C[C@]4(C)[C@@]3(F)[C@@H](O)C[C@@]21C [BETAMETHASONE ACETATE]" quantity_measured="Bacterial Biotransformation" test_value="Compound metabolized"
compound=CCOc1ccc(NC(C)=O)cc1 quantity_measured="Bacterial Biotransformation" test_value="Compound NOT metabolized"
compound=CC(C)c1nc(CN(C)C(=O)N[C@H](C(=O)N[C@@H](Cc2ccccc2)C[C@H](O)[C@H](Cc2ccccc2)NC(=O)OCc2cncs2)C(C)C)cs1 quantity_measured="Bacterial Biotransformation" test_value="Compound NOT metabolized"
compound=CO[C@]12C[C@@H](COC(=O)c3cncc(Br)c3)CN(C)[C@@H]1Cc1cn(C)c3cccc2c13 quantity_measured="Bacterial Biotransformation" test_value="Compound NOT metabolized"

* * *

Protocol conditions: human gut metagenome, 24 h, 2 µM
Quantity measured: Bacterial Biotransformation

molecule=OCCN1CCN(CCCN2c3ccccc3Sc3ccc(C(F)(F)F)cc32)CC1 test_value="Compound metabolized"
molecule=CCOc1ccc(NC(C)=O)cc1 test_value="Compound NOT metabolized"
molecule=O=C(O)CCc1nc(-c2ccccc2)c(-c2ccccc2)o1 test_value="Compound metabolized"
molecule="CC(=O)O[C@]1(C(C)=O)CC[C@H]2[C@@H]3C=C(Cl)C4=CC(=O)[C@@H]5C[C@@H]5[C@]4(C)[C@H]3CC[C@@]21C [CYPROTERONE ACETATE]" test_value="Compound metabolized"
molecule="CCC(COC(=O)c1cc(OC)c(OC)c(OC)c1)(c1ccccc1)N(C)C.O=C(O)/C=C\\C(=O)O (centres undefined)" test_value="Compound NOT metabolized"
molecule="COc1ccc2[nH]c([S+]([O-])Cc3ncc(C)c(OC)c3C)nc2c1 (centres undefined)" test_value="Compound metabolized"
molecule="COc1ccccc1N1CCN(CC(O)COc2cccc3ccccc23)CC1 (centres undefined)" test_value="Compound NOT metabolized"
molecule=CCCCC(=O)N(Cc1ccc(-c2ccccc2-c2nnn[nH]2)cc1)[C@H](C(=O)O)C(C)C test_value="Compound metabolized"
molecule="O=C(Nc1ccccc1)OCC(CN1CCCCC1)OC(=O)Nc1ccccc1 (centres undefined)" test_value="Compound NOT metabolized"

* * *

Protocol conditions: human gut metagenome, 24 h, 2 µM
Quantity measured: Bacterial Biotransformation

compound=CCCc1nc2c(C)cc(-c3nc4ccccc4n3C)cc2n1Cc1ccc(-c2ccccc2C(=O)O)cc1 quantity_measured="Bacterial Biotransformation" test_value="Compound metabolized"
compound="CN1CCN(CC/C=C2/c3ccccc3Sc3ccc(S(=O)(=O)N(C)C)cc32)CC1 [THIOTHIXENE]" quantity_measured="Bacterial Biotransformation" test_value="Compound metabolized"
compound="CCC1(c2ccc(N)cc2)CCC(=O)NC1=O (stereo not drawn) [AMINOGLUTETHIMIDE]" quantity_measured="Bacterial Biotransformation" test_value="Compound NOT metabolized"
compound="CN/C(=N/CCSCc1nc[nH]c1C)NC#N [CIMETIDINE]" quantity_measured="Bacterial Biotransformation" test_value="Compound NOT metabolized"
compound="COc1ccccc1OCC(O)COC(N)=O (stereo not drawn) [METHOCARBAMOL]" quantity_measured="Bacterial Biotransformation" test_value="Compound NOT metabolized"
compound="CNC(=C[N+](=O)[O-])NCCSCc1ccc(CN(C)C)o1 [RANITIDINE]" quantity_measured="Bacterial Biotransformation" test_value="Compound metabolized"
compound="CNCCC(Oc1ccc(C(F)(F)F)cc1)c1ccccc1 (stereo not drawn) [FLUOXETINE]" quantity_measured="Bacterial Biotransformation" test_value="Compound NOT metabolized"
compound="CN(C)CCc1c[nH]c2ccc(Cn3cncn3)cc12.O=C(O)c1ccccc1 [RIZATRIPTAN BENZOATE]" quantity_measured="Bacterial Biotransformation" test_value="Compound NOT metabolized"
compound="Nc1ccc(/N=N/c2ccccc2)c(N)n1 [PHENAZOPYRIDINE]" quantity_measured="Bacterial Biotransformation" test_value="Compound NOT metabolized"
compound="C[C@@H]1C[C@H]2[C@@H]3CCC4=CC(=O)C=C[C@]4(C)[C@@]3(F)[C@@H](O)C[C@]2(C)[C@@]1(O)C(=O)CO [DEXAMETHASONE]" quantity_measured="Bacterial Biotransformation" test_value="Compound NOT metabolized"
compound="Nc1nc2ccc(OC(F)(F)F)cc2s1 [RILUZOLE]" quantity_measured="Bacterial Biotransformation" test_value="Compound metabolized"
compound="CCN1CCCC1CNC(=O)c1cc(S(N)(=O)=O)ccc1OC (stereo not drawn) [SULPIRIDE]" quantity_measured="Bacterial Biotransformation" test_value="Compound NOT metabolized"
compound=Cc1cc2c(cc1S(N)(=O)=O)S(=O)(=O)CCC2 quantity_measured="Bacterial Biotransformation" test_value="Compound NOT metabolized"
compound="CC(C)(C)NC[C@H](O)COc1ccccc1C1CCCC1.CC(C)(C)NC[C@H](O)COc1ccccc1C1CCCC1.O=S(=O)(O)O [PENBUTOLOL SULFATE]" quantity_measured="Bacterial Biotransformation" test_value="Compound metabolized"
compound="COC(=O)Nc1nc2ccc(C(=O)c3ccccc3)cc2[nH]1 [MEBENDAZOLE]" quantity_measured="Bacterial Biotransformation" test_value="Compound metabolized"
compound="CC(C)(C(=O)O)c1ccc(C(O)CCCN2CCC(C(O)(c3ccccc3)c3ccccc3)CC2)cc1 (stereo not drawn) [FEXOFENADINE]" quantity_measured="Bacterial Biotransformation" test_value="Compound NOT metabolized"
compound="CC(O)(CS(=O)(=O)c1ccc(F)cc1)C(=O)Nc1ccc(C#N)c(C(F)(F)F)c1 (stereo not drawn) [BICALUTAMIDE]" quantity_measured="Bacterial Biotransformation" test_value="Compound NOT metabolized"
compound="Cc1cn([C@H]2C[C@H](N=[N+]=[N-])[C@@H](CO)O2)c(=O)[nH]c1=O [ZIDOVUDINE]" quantity_measured="Bacterial Biotransformation" test_value="Compound NOT metabolized"

* * *

Protocol conditions: human gut metagenome, 24 h, 2 µM
Quantity measured: Bacterial Biotransformation

compound="CCOc1ccc(NC(C)=O)cc1 [PHENACETIN]" test_value="Compound NOT metabolized"
compound="O=C(O)CCc1nc(-c2ccccc2)c(-c2ccccc2)o1 [OXAPROZIN]" test_value="Compound metabolized"
compound="CCOC(=O)[C@H](CCc1ccccc1)N[C@@H](C)C(=O)N1[C@H](C(=O)O)C[C@H]2CCCC[C@@H]21 [TRANDOLAPRIL]" test_value="Compound metabolized"
compound="CN1CCc2cccc3c2[C@H]1Cc1ccc(O)c(O)c1-3 [APOMORPHINE]" test_value="Compound NOT metabolized"
compound="CCN1CCCC1CNC(=O)c1cc(S(N)(=O)=O)ccc1OC (stereo not given) [SULPIRIDE]" test_value="Compound NOT metabolized"
compound="CCN(CC)C(C)CN1c2ccccc2Sc2ccccc21 (stereo not given) [ETHOPROPAZINE]" test_value="Compound metabolized"
compound="C=CCc1ccccc1OCC(O)CNC(C)C (stereo not given) [ALPRENOLOL]" test_value="Compound NOT metabolized"
compound="O=C(NCc1ccccc1)OCCO [BURAMATE]" test_value="Compound NOT metabolized"
compound="Nc1nc2ccc(OC(F)(F)F)cc2s1 [RILUZOLE]" test_value="Compound metabolized"
compound="Nc1c2c(nc3ccccc13)CCCC2 [TACRINE]" test_value="Compound NOT metabolized"
compound="CN1CCN(C2=Nc3cc(Cl)ccc3Nc3ccccc32)CC1 [CLOZAPINE]" test_value="Compound NOT metabolized"
compound="Cc1ccc(-c2cc(C(F)(F)F)nn2-c2ccc(S(N)(=O)=O)cc2)cc1 [CELECOXIB]" test_value="Compound metabolized"
compound="CN1CCN(CC/C=C2/c3ccccc3Sc3ccc(S(=O)(=O)N(C)C)cc32)CC1 [THIOTHIXENE]" test_value="Compound metabolized"
compound="CC(C)c1nc(CN(C)C(=O)N[C@H](C(=O)N[C@@H](Cc2ccccc2)C[C@H](O)[C@H](Cc2ccccc2)NC(=O)OCc2cncs2)C(C)C)cs1 [RITONAVIR]" test_value="Compound NOT metabolized"
compound="Cc1ccc(S(=O)(=O)NC(=O)NN2CCCCCC2)cc1 [TOLAZAMIDE]" test_value="Compound metabolized"
compound="CCN(CC)CCNC(C(=O)OCCC(C)C)c1ccccc1.Cl.Cl (stereo not given)" test_value="Compound metabolized"
compound="OC(Cn1cncn1)(Cn1cncn1)c1ccc(F)cc1F [FLUCONAZOLE]" test_value="Compound metabolized"
compound="CCc1nc(N)nc(N)c1-c1ccc(Cl)cc1 [PYRIMETHAMINE]" test_value="Compound NOT metabolized"
compound="O=c1n(CCCN2CCN(c3cccc(Cl)c3)CC2)nc2ccccn12 [TRAZODONE]" test_value="Compound NOT metabolized"
compound="CN(C)CCc1c[nH]c2ccc(Cn3cncn3)cc12.O=C(O)c1ccccc1 [RIZATRIPTAN BENZOATE]" test_value="Compound NOT metabolized"
